// reported protein stability index per item
B1: RHOBTB3 (parent)
chain: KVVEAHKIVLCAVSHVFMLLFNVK

variants of: B1; assay: protein stability index of a GFP-peptide fusion (GPS, HEK-293T) (PSI 1-6); higher = more stable; conditions: c terminus: a fixed tail appended;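 further: lentivirally expressed fusions sorted by FACS into six bins by GFP to DsRed ratio, PSI derived from sequencing read proportions per bin multiplied by bin number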
Please state the value as a number alone, without comment.

protein stability index measured on E4H = 2.69

protein stability index measured on H15Y = 3.36

protein stability index measured on V3C = 2.3
